Measured values drawn from paper PMC6133080 for this set.

- Format: in vivo, human
- run parameters: human, plasma, po, 50 mg
recorded endpoint: AUC(0-inf)
Don't forget the unit after the value.

# input Provide measured AUC(0-inf) value, entry: COC(=O)c1ccc2c(c1)NC(=O)/C2=C(\Nc1ccc(N(C)C(=O)CN2CCN(C)CC2)cc1)c1ccccc1 [Nintedanib]
# output 38.6 ng·h/mL

====

- Format: in vivo, human
- run parameters: human, plasma, po, 150 mg
recorded endpoint: half-life (min)
Just the number please, in min, no unit attached.

# input Specify reported half-life for the compound shown: "COC(=O)c1ccc2c(c1)NC(=O)/C2=C(\Nc1ccc(N(C)C(=O)CN2CCN(C)CC2)cc1)c1ccccc1"
# output 1350
